# reported self-cleavage; entries follow
B1: CPEB3 Ribozyme (parent)
chain: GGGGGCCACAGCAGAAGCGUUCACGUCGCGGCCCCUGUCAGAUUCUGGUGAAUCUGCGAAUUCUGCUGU

variants of: B1; assay: self-cleavage, relative activity (ratio to wild type); higher = more cleavage; co-transcriptional
The answer should be a number; do not append a unit.

For orientation, consider the following solved cases.
A16U G25A = 0.206
U21C U43C = 0.875
A23G U26C = 1.03
G30A A60U = 0.367
U20C U21C = 0.197
A10C G41A = 0.824

# input variant: A16C U20C ; wanted: its self-cleavage
0.125

Please look up its self-cleavage: G17C U20C
0.157

Give its self-cleavage value. Item: A16G C22A
0.167

Return reported self-cleavage; argument: G5U A40U
0.132
